Entries and their Population Membrane Permeable-Phenotype (%)
- Tested on: Fibroblast
- TEST_PROTOCOL: Multiplex assay against human fibroblast
- Format: toxicity, cell-based
- CONDITION_CONTEXT: 12 h, 10 µM, compound concentration 10 uM, replicate 2
I'd appreciate it if you wrote the number followed by its unit.

[
  {
    "COMPOUND": "Cc1ccc(NC(=O)Nc2cc(C(F)(F)F)ccc2F)cc1Nc1ccc2c(c1)NC(=O)/C2=C\\c1ccc[nH]1",
    "EXPERIMENTAL_VALUE": "0%"
  },
  {
    "COMPOUND": "CN(c1cc(C(F)(F)F)nc(OCCC(=O)O)n1)c1cccc2c1CCC2",
    "EXPERIMENTAL_VALUE": "4%"
  },
  {
    "COMPOUND": "c1ccc(-c2oc3ncnc(NC[C@@H]4CCCO4)c3c2-c2ccccc2)cc1",
    "EXPERIMENTAL_VALUE": "34%"
  },
  {
    "COMPOUND": "CC(Cc1ccc(O)c(O)c1)C(C)Cc1ccc(O)c(O)c1 (centres undefined) [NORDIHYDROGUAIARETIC ACID]",
    "EXPERIMENTAL_VALUE": "2%"
  },
  {
    "COMPOUND": "CCOC(=O)CCNc1cc(N2CCc3ccccc3CC2)nc(-c2ccccn2)n1",
    "EXPERIMENTAL_VALUE": "33%"
  },
  {
    "COMPOUND": "Cc1c(P(=S)(c2ccccc2)c2ccccc2)n2ccccc2[n+]1C/C=C/c1ccccc1.[Br-]",
    "EXPERIMENTAL_VALUE": "83%"
  }
]

# compound CC[C@@]1(O)C(=O)OCc2c1cc1n(c2=O)Cc2cc3ccccc3nc2-1 [CAMPTOTHECIN] ; its Population Membrane Permeable-Phenotype (%) = 7%

Population Membrane Permeable-Phenotype (%) for `Cc1c(Nc2ccc(S(=O)(=O)N3CCN(C)CC3)cc2F)nc2ccc(Nc3cnn(C4CC4)c3)cn2c1=O` is 9%

Looking up Cl.Cn1c2c(c3ccc(Cl)c(Cl)c31)C(C#N)C1(CCNCC1)NC2=O (centres undefined) , I found its Population Membrane Permeable-Phenotype (%) recorded as 5%
